test system: Staphylococcus aureus; experiment: Antimicrobial activity against SCCmec type III vancomycin-intermediate Staphylococcus aureus isolate xa07029 by agar dilution method; assay type: functional
In this section we review reported MIC values for a set of compounds.
The reply should contain only the number, in µg/mL.

Known MIC results, listed for orientation:
smiles-structure	target-under-test	MIC (µg/mL)
Nc1nc(/C(=N/O)C(=O)N[C@@H]2C(=O)N3C(C(=O)O)=C(/C=C4\CCN([C@@H]5CCNC5)C4=O)CS[C@H]23)ns1	Staphylococcus aureus	2
C[C@H]1COc2c(N3CCN(C)CC3)c(F)cc3c(=O)c(C(=O)O)cn1c23.C[C@H]1COc2c(N3CCN(C)CC3)c(F)cc3c(=O)c(C(=O)O)cn1c23.O	Staphylococcus aureus	8
CC[C@H]1OC(=O)[C@H](C)[C@@H](O[C@H]2C[C@@](C)(OC)[C@@H](O)[C@H](C)O2)[C@H](C)[C@@H](O[C@@H]2O[C@H](C)C[C@H](N(C)C)[C@H]2O)[C@](C)(OC)C[C@@H](C)C(=O)[C@H](C)[C@@H](O)[C@]1(C)O	Staphylococcus aureus	32
CN(C)c1cc(NC(=O)CNC(C)(C)C)c(O)c2c1C[C@H]1C[C@H]3[C@H](N(C)C)C(O)=C(C(N)=O)C(=O)[C@@]3(O)C(O)=C1C2=O	Staphylococcus aureus	0.25

Next, consider the following compound.
Looking for the measured MIC of CC(=O)NC[C@H]1CN(c2ccc(N3CCOCC3)c(F)c2)C(=O)O1 , can you help? 1

* * *

system: Staphylococcus aureus; experiment: Antimicrobial activity against heterogeneous vancomycin-intermediate Staphylococcus aureus assessed as growth inhibition at 16 times MIC; assay type: functional; design: scale not given: the % may be the effect or the level left
Entries and their Activity values follow.
Your answer should be a plain number; it is taken to be in %.

Study these solved cases before continuing.
smiles-structure	observed-value
CC(=O)NC[C@H]1CN(c2ccc(N3CCOCC3)c(F)c2)C(=O)O1	100
Nc1nc(/C(=N/O)C(=O)N[C@@H]2C(=O)N3C(C(=O)O)=C(/C=C4\CCN([C@@H]5CCNC5)C4=O)CS[C@H]23)ns1	100

Activity for CN[C@H](CC(C)C)C(=O)N[C@H]1C(=O)N[C@@H](CC(N)=O)C(=O)N[C@H]2C(=O)N[C@H]3C(=O)N[C@H](C(=O)N[C@H](C(=O)O)c4cc(O)cc(O)c4-c4cc3ccc4O)[C@H](O)c3ccc(c(Cl)c3)Oc3cc2cc(c3O[C@@H]2O[C@H](CO)[C@@H](O)[C@H](O)[C@H]2O[C@H]2C[C@](C)(N)[C@H](O)[C@H](C)O2)Oc2ccc(cc2Cl)[C@H]1O ? 100

* * *

system: Staphylococcus aureus; assay: Antimicrobial activity against SCCmec type III vancomycin-intermediate Staphylococcus aureus isolate b5k3529 by agar dilution method; format: functional
Consider the following compounds and their measured MIC readings.
Give just the number in µg/mL; leave the unit off.

Solved cases below.
smiles-structure	MIC [µg/mL]
C[C@H]1COc2c(N3CCN(C)CC3)c(F)cc3c(=O)c(C(=O)O)cn1c23.C[C@H]1COc2c(N3CCN(C)CC3)c(F)cc3c(=O)c(C(=O)O)cn1c23.O	16
CC[C@H]1OC(=O)[C@H](C)[C@@H](O[C@H]2C[C@@](C)(OC)[C@@H](O)[C@H](C)O2)[C@H](C)[C@@H](O[C@@H]2O[C@H](C)C[C@H](N(C)C)[C@H]2O)[C@](C)(OC)C[C@@H](C)C(=O)[C@H](C)[C@@H](O)[C@]1(C)O	64
CC(=O)NC[C@H]1CN(c2ccc(N3CCOCC3)c(F)c2)C(=O)O1	0.5
Nc1nc(/C(=N/O)C(=O)N[C@@H]2C(=O)N3C(C(=O)O)=C(/C=C4\CCN([C@@H]5CCNC5)C4=O)CS[C@H]23)ns1	2
CN(C)c1cc(NC(=O)CNC(C)(C)C)c(O)c2c1C[C@H]1C[C@H]3[C@H](N(C)C)C(O)=C(C(N)=O)C(=O)[C@@]3(O)C(O)=C1C2=O	0.125

Could you now look at the following compound, please?
What does the record list as MIC for CO[C@H]1/C=C/O[C@@]2(C)Oc3c(C)c(O)c4c(O)c(c(/C=N/N5CCN(C)CC5)c(O)c4c3C2=O)NC(=O)/C(C)=C\C=C\[C@H](C)[C@H](O)[C@@H](C)[C@@H](O)[C@@H](C)[C@H](OC(C)=O)[C@@H]1C ? 0.5

The origin of these recorded values is ChEMBL document CHEMBL1649574.
